Measured growth by item
tested on: HCT-15 colon; assay: NCI-60 one-dose screen, 48 h (100 = growth as untreated, 0 = no growth, -100 = all killed); conditions: 10 µM unless noted
The panel holds about 83,000 compounds, 20% with a hit somewhere; the sample as a whole holds those more often. Activity calls are given as the source filed them. The calls were made as follows: active = growth percent below 10; inactive = the rest.

Record excerpt, results attached:
In: Item O=c1c2c3c(sc2nc(N/N=C/c2cn(-c4ccccc4)nc2-c2ccc(Cl)cc2)n1Cc1ccccc1)CCCC3 : provide growth
Out: 114% (inactive)

In: Please report the measured growth for CCCN1CCN(c2ccc3nc(-c4ccc5nc(-c6ccc(OCC)cc6)[nH]c5c4)[nH]c3c2)CC1
Out: -56.5% (active)

In: Check the records and state growth for CCCSc1ccc2nc(NC(=O)OC)[nH]c2c1
Out: 18.1% (inactive)

Others:
In: Read off the recorded growth for COc1ccc2c(c1)O/C(=C\c1cccc(OCC(=O)Nc3nc4c(s3)CCCC4)c1)C2=O
Out: 84.8% (inactive)

In: Supply reported growth belonging to this compound: Brc1ccc(-c2csc(Nc3ccccn3)n2)cc1
Out: 138% (inactive)

In: Dear colleague, please send me the reported growth for Cc1ccc2c(c1)C(=O)/C(=C/c1cccc(OCC(=O)c3ccc(Cl)cc3)c1)CS2 when you can.
Out: 81.3% (inactive)

In: Name the recorded growth of the item Cc1cc(C)nc(SC2=C(Nc3cccc(Cl)c3C)C(=O)N(Cc3ccccc3)C2=O)n1 in your answer.
Out: 51.6% [30 µM] (inactive)

In: Please indicate growth recorded for CCN(CC)c1ccc(/C=N\NC(=O)/C=C/C=C/c2ccc3c(c2)OCO3)c(O)c1
Out: 21.3% (inactive)

In: State its growth for this compound: COc1cc(-c2nc3ccccc3[nH]2)ccc1OCc1nnc(-c2ccc(CC(C)C)cc2)o1
Out: 76.5% (inactive)

* * *

System: HT29 colon
Test: NCI-60 one-dose screen, 48 h
Conditions: 10 µM unless noted
Experimental: Growth inhibition of the HT29 human tumor cell line is measured as a screen for anti-cancer activity. Cells are grown in 96 well plates and exposed to the test compound for 48 hours. Compounds are tested at a single concentration, which is 10^-5 M for most compounds. The reported endpoint is percent growth (GI% or GIPRCNT), where numbers from 0 - 100% represent growth inhibition, and numbers from -100% - 0 represent cell death. For example, a value of 40 represents 60% growth inhibition. […]
The panel holds about 83,000 compounds, 20% with a hit somewhere; the sample as a whole holds those more often. Calls of active or inactive are those of the source. The calls were made as follows: active = growth percent below 10; inactive = the rest.
Can you answer with just one of these options? Y for active, N for inactive

Take a look at these entries with their results.
In: Just curious, what result did N#Cc1nnn(-c2ccc(S(N)(=O)=O)cc2)c1NCC(=O)c1ccccc1 get here?
Out: N

In: Hi team, can someone confirm the assay call for COc1ccc(-n2nc(C)c3c(Nc4ccc(NC(=O)Nc5ccc(Cl)c(C(F)(F)F)c5)cc4)ncnc32)cc1 ?
Out: Y

In: Entry Brc1ccc(-c2csc(Nc3ccccn3)n2)cc1 : call = ?
Out: N

In: Record lookup: outcome of this test for COc1ccc(S(=O)(=O)N2CCN(C)CC2)cc1NC(=O)c1[nH]c(C)c2c1CCCCC2=O ?
Out: N

Could you now look at the following molecule, please?
In: So what was the verdict on OCC(O)c1nc2ccc3[nH]ncc3c2c2c1CCCC2 (stereo not given) in this test?
Out: Y

* * *

test system: OVCAR-4 ovarian; experiment: NCI-60 one-dose screen, 48 h (100 = growth as untreated, 0 = no growth, -100 = all killed); details: 10 µM unless noted
This is part of a sample that, as a whole, favours compounds with a hit. Of some 83,000 tested, about 20% had one in any assay.
Label MET when growth < 90%; otherwise NOT MET.

In: Lab log: compare recorded growth with 90%; is it strictly lower for CCC#CC[C@H](O)C/C=C1/C(=O)C=C[C@@H]1C/C=C\CCCC(=O)OC ?
Out: MET

In: Determine whether this compound shows growth lower than 90% (ties excluded): COc1cc2c(cc1O)CC[C@@H]1[C@@H]2CC[C@]2(C)[C@@H](OCCN(C)C)CC[C@@H]12
Out: MET

In: Answer whether the compound Cc1ccc(O)c(N2C(=NCc3ccco3)NS(=O)(=O)c3cnccc32)c1 has growth strictly less than 90%
Out: NOT MET

In: Please indicate whether the reported growth of O=C(Nc1ccc(Cl)cc1)c1cc2cc(F)ccc2cc1O is strictly below 90%.
Out: MET

* * *

system: NCI/ADR-RES ovarian; assay: NCI-60 one-dose screen, 48 h (100 = growth as untreated, 0 = no growth, -100 = all killed); settings: 10 µM unless noted
This is part of a sample that, as a whole, favours compounds with a hit. Of some 83,000 tested, about 20% had one in any assay.
Measured growth, listed per entry for reference.
Just the number in %, nothing appended.

# count of solved cases: 6
In: Find the measured growth of COc1cccc(Nc2nc(SC)nc(-c3cccc([N+](=O)[O-])c3)c2C#N)c1 and report it.
Out: 70.2

In: Answer with the recorded growth of COc1ccc(-c2cc(Nc3ccnc(N4CCOCC4)n3)on2)cc1 only.
Out: 10.8

In: Return value of growth for input CCCOc1cc2ccccc2cc1C(=O)Nc1nc(N)c2c(ccc3nccc32)[nH]1 , no commentary.
Out: -8.57

In: Annotate the molecule O=C1CSC(=S)N1CCc1ccc(O)cc1 with its measured growth.
Out: 94.7

In: Please indicate growth recorded for CC1=NN(c2nc(-c3ccc(Cl)cc3)c(C#N)c(N3CCOCC3)n2)C(=O)C1
Out: 96.1

In: Hello, please tell me recorded growth for this one: Cc1c(/C=C/[N+](=O)[O-])ccc2c1[nH]c1ccccc12
Out: 108

Further cases:
In: Query growth for Oc1ccccc1-c1nnc(CNc2ccc(Cl)cc2)o1
Out: 13.4

In: Let me know recorded growth for COc1ccc(CN2c3ccccc3Sc3ccccc32)c(C(F)(F)F)c1 , thanks.
Out: 22.7

In: State, in one line, measured growth of CC1=C(O)C(=O)C(C(C#N)(C#N)C(C#N)C#N)C1 (stereo not drawn)
Out: 97.7

In: Give the value of growth reported for the following: COc1cccc2c1C(=O)c1c(O)c3c(c(O)c1C2=O)C[C@](O)(C(=O)CO)C[C@H]3O[C@@H]1C[C@@H](NC(=O)CCCCCN(C)C2(c3ccc(F)cc3)CC3CCC2C3)[C@H](O)[C@@H](C)O1 (stereo partly drawn)
Out: 80.2

* * *

Property: growth; scope: individual compounds
tested on: SNB-19 CNS; assay: NCI-60 one-dose screen, 48 h (100 = growth as untreated, 0 = no growth, -100 = all killed); details: 10 µM unless noted
About 83,000 compounds went through this panel and 20% of them were active in at least one assay; those are over-represented in the sample as a whole.
Only the number, expressed in %, is required.

Record excerpt, results attached:
In: Please look at this compound and report its growth: O=C(COc1ccc(/C=C2\COc3ccccc3C2=O)cc1)Nc1nccs1
Out: 88.2

In: Entry CCN(CC)c1ccc(/C=N\NC(=O)/C=C/C=C/c2ccc3c(c2)OCO3)c(O)c1 needs its growth filled in; supply it.
Out: 61

In: Entry CC1=C[C@H]2c3c(c(O)c(O)c4oc5cc(O)ccc5c(=O)c34)[C@H](c3cc(O)c(O)c4oc5cc(O)ccc5c(=O)c34)[C@H]2C(C)(C)C1 needs its growth filled in; supply it.
Out: 22.1

In: Answer with the recorded growth for the compound listed here: CCOc1nc(-c2ccccc2)cc2c(O)c(C(=O)N/N=C/c3ccc(O)cc3O)[nH]c(=O)c12
Out: 43.2

In the following, a different compound is considered.
In: Give the reported value of growth for this record: COc1cc2nc(N3CCCC3)nc(NCC3CCCCC3)c2cc1OC
Out: 82.9

* * *

test system: MOLT-4 leukemia; assay: NCI-60 one-dose screen, 48 h (100 = growth as untreated, 0 = no growth, -100 = all killed); settings: 10 µM unless noted
This is part of a sample that, as a whole, favours compounds with a hit. Of some 83,000 tested, about 20% had one in any assay.
Criterion: growth strictly under 50%. Met: MET. Not met: NOT MET.

Would you please look over these solved cases?
In: Dear reviewer, please state whether COc1ccc(-c2nc3ccc(-c4nc5ccc(N6CCN(C)CC6)cc5[nH]4)cc3[nH]2)cc1OC has growth strictly beneath 50%.
Out: NOT MET

In: Is 50% strictly greater than the compound's reported growth? compound: COc1ccc(-n2nc(C)c3c(Nc4ccc(NC(=O)Nc5c(Cl)cccc5Cl)cc4)ncnc32)cc1
Out: NOT MET

In: Please determine if Cc1cc2nc(NC(=O)CN3CCN(CCN4C(=O)c5cccc6cccc(c56)C4=O)CC3)sc2cc1C is below 50% in terms of growth.
Out: MET

In: Quick check: does COc1ccc(N=Nc2nccs2)c(O)c1 have growth under 50%?
Out: MET

In: Is growth of COc1cc2nc(N3CCCC3)nc(NCC3CCCCC3)c2cc1OC strictly below 50%?
Out: MET

***
In: Lab log: compare recorded growth with 50%; is it strictly lower for O=Nc1c(O)c(Cl)cc2ccccc12 ?
Out: MET

In: Hello, is growth of the following compound strictly smaller than 50%? COc1ccc2[nH]cc(-c3noc(C(=O)c4cn(C)c5ccc(F)cc45)n3)c2c1
Out: NOT MET

In: Here's an entry: COc1cccc(/C=N/NC(=O)c2ccccc2Nc2ccnc(C(F)(F)F)c2)c1O . Is its growth below 50%?
Out: MET

In: Dear reviewer, please state whether C=C1C(=O)O[C@H]2[C@H]1CC/C(COC(=O)c1cc3cc(OC)ccc3[nH]1)=C\CC[C@@]1(C)O[C@@H]21 has growth strictly beneath 50%.
Out: MET

In: # check: growth < 50% for Clc1ccc2c(NCCNc3nc(N4CCOCC4)nc4ccccc34)ccnc2c1
Out: MET
